system: Mycobacterium tuberculosis variant bovis BCG; test: Antitubercular activity against active Mycobacterium bovis BCG ATCC 35734 after 8 days by nitrate reductase assay; assay type: functional; settings: ATCC 35734, 192 h
Items are presented alongside their recorded MIC90.
Report as a plain number; the unit mg/L is understood.

Past entries and their recorded results:
query: Consider the molecule shown here: `Cc1cc2oc(-c3cc4ccccc4s3)cc(=O)c2cc1Cl` What is its recorded MIC90?
result: 0.56

query: Now the molecule NNC(=O)c1ccncc1 [ISONIAZID]
result: 0.075

query: Next: `O=C(CC(=O)c1cc(Cl)ccc1O)c1cc2ccccc2s1`
result: 2.22

query: Then what about the molecule `O=C(CC(=O)c1ccccc1O)c1cc2ccccc2s1` ?
result: 2.34

Please examine the following record next.
query: Item under review: CO[C@H]1/C=C/O[C@@]2(C)Oc3c(C)c(O)c4c(O)c(c(/C=N/N5CCN(C)CC5)c(O)c4c3C2=O)NC(=O)/C(C)=C\C=C\[C@H](C)[C@H](O)[C@@H](C)[C@@H](O)[C@@H](C)[C@H](OC(C)=O)[C@@H]1C [RIFAMPIN] . Reported MIC90?
result: 0.004

----------
system: Mycobacterium tuberculosis variant bovis BCG; experiment: Antitubercular activity against active Mycobacterium bovis BCG ATCC 35734 after 8 days by nitrate reductase assay; type: functional; details: ATCC 35734, 192 h
Property: MIC90 (µg/mL)
Number only, in µg/mL; omit the unit.

query: # input compound: `Cc1ccc2oc(-c3cc4ccccc4s3)cc(=O)c2c1` ; wanted: its MIC90
result: 0.62

query: Would you mind doing `O=C(CC(=O)c1cc(Br)ccc1O)c1cc2ccccc2s1` as well?
result: 1.16

We next turn to a different compound, shown below.
query: State the recorded MIC90 for this entry: `Cc1ccc(C(=O)CC(=O)c2cc3ccccc3s2)c(O)c1`
result: 1.68

----------
Reported MIC90 values for the following compounds.
system: Mycobacterium tuberculosis; assay: Antitubercular activity against drug resistant dormant Mycobacterium tuberculosis H37Ra ATCC 25177 after 12 days by XTT reduction menadione assay; format: functional; details: H37Ra ATCC 25177, 288 h
Give a bare numeral; the unit µg/mL is implied.

Some entries whose results are on file:
query: Return reported MIC90; argument: `O=C(CC(=O)c1ccccc1O)c1cc2ccccc2s1`
result: 2.87

query: Follow-up entry: `O=C(CC(=O)c1cc(Cl)ccc1O)c1cc2ccccc2s1`
result: 2.73

query: Note, next up: `Cc1cc2oc(-c3cc4ccccc4s3)cc(=O)c2cc1Cl`
result: 9.1

query: Also, `Cc1ccc2oc(-c3cc4ccccc4s3)cc(=O)c2c1` please.
result: 7.22

query: Record: `O=C(CC(=O)c1cc(Br)ccc1O)c1cc2ccccc2s1`
result: 7.11

Now look at this entry.
query: # MIC90 lookup, item `Cc1ccc(C(=O)CC(=O)c2cc3ccccc3s2)c(O)c1`
result: 9.42
